test system: NCI-H460 lung
Your response should consist of one outcome taken from active, inactive

Please review the entries below; each comes with its answer.
compound	label_class
CC1=C(C)C(=O)O[C@@H]([C@](C)(O)[C@]2(O)CC[C@@]3(O)[C@@H]4C[C@H]5O[C@]56[C@@H](O)C=CC(=O)[C@]6(C)[C@H]4CC[C@]23C)C1	inactive
CC1CC2(C)ON=C(c3ccccc3)N2c2ccccc2S1 (centres undefined)	inactive
Cc1nn(-c2nc3ccccc3s2)c(C)c1Oc1ccccc1O	inactive
O=S(=O)(O)O.[NH-]C1CCCCC1[NH-].[Pt+2] (centres undefined)	inactive
COc1cc2nc(-c3cnc(N(C)C)nc3)nc(NC3CCN(Cc4ccccc4)CC3)c2cc1OC	active
CCC[CH2][Sn]1([CH2]CCC)[O]C(=O)c2cc(I)cc(I)c2[O]1	inactive
N#C/C(=C\c1ccc(-c2ccc(Cl)cc2)o1)C(=O)Nc1ncc(Cc2ccc(Cl)cc2)s1	inactive
CC(C)=CCC[C@H](C)[C@@H]1CC[C@]2(C)C3CC[C@]4(OC4(C)C)C(CCCO)[C@]3(C)CC[C@@]12C (some centres undefined)	inactive

Okay, next one:
Incoming: // param item: `COc1ccc2c(c1)c(-c1ccc(-c3cn(S(=O)(=O)c4ccccc4)c4ccc(OC)cc34)s1)cn2S(=O)(=O)c1ccccc1` ; yields the recorded call
Outgoing: inactive
